Data origin: PubChem BioAssay AID1963969

system: 817829-284-R-J1-PDC multi-cell spheroid viability; test: Anticancer human tumor 817829-284-R-J1-PDC patient-derived colon adenocarcinoma cell line growth inhibition [PI3K]; settings: second compound 0.01 µM; first compound 1 µM; stronger effect = lower value
# note: exactly 60% is not below, so it is No; use Yes for viability, T/C strictly under it

# Molecule, Test system, Assigned class
records = [
    ("CC1(C)CCC(CN2CCN(c3ccc(C(=O)NS(=O)(=O)c4ccc(NCC5CCOCC5)c([N+](=O)[O-])c4)c(Oc4cnc5[nH]ccc5c4)c3)CC2)=C(c2ccc(Cl)cc2)C1 + CC(Nc1ccc2c(c1)OCCn1cc(N3C(=O)OCC3C(F)F)nc1-2)C(N)=O", "817829-284-R-J1-PDC multi-cell spheroid viability", "No"),
    ("CNC(=O)c1ccc(N2C(=S)N(c3ccc(C#N)c(C(F)(F)F)c3)C(=O)C2(C)C)cc1F + CC(Nc1ccc2c(c1)OCCn1cc(N3C(=O)OCC3C(F)F)nc1-2)C(N)=O", "817829-284-R-J1-PDC multi-cell spheroid viability", "No"),
    ("C=CC(=O)N1CCN(c2nc(=O)n(-c3c(C)ccnc3C(C)C)c3nc(-c4c(O)cccc4F)c(F)cc23)C(C)C1 (configuration not stated) + CC(Nc1ccc2c(c1)OCCn1cc(N3C(=O)OCC3C(F)F)nc1-2)C(N)=O", "817829-284-R-J1-PDC multi-cell spheroid viability", "No"),
    ("CC(Cn1ccc(-c2ccc(C#N)c(Cl)c2)n1)NC(=O)c1cc(C(C)O)[nH]n1 (configuration not stated) + CC(Nc1ccc2c(c1)OCCn1cc(N3C(=O)OCC3C(F)F)nc1-2)C(N)=O", "817829-284-R-J1-PDC multi-cell spheroid viability", "No"),
    ("Cn1ncc(Cl)c1-c1cc(C(=O)NC(CN)Cc2cccc(F)c2)sc1Cl (configuration not stated) + CC(Nc1ccc2c(c1)OCCn1cc(N3C(=O)OCC3C(F)F)nc1-2)C(N)=O", "817829-284-R-J1-PDC multi-cell spheroid viability", "Yes"),
]

====

system: 817829-284-R-J1-PDC multi-cell spheroid viability; experiment: Anticancer human tumor 817829-284-R-J1-PDC cell line growth inhibition [PI3K]; details: second compound 10 µM; first compound 0.0316 µM; stronger effect = lower value;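 also: spheroids exposed to agents for seven days before readout; percent of vehicle DMSO control viability which is 100%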
// values below are reported viability, T/C

# Compound, Test system, viability, T/C, %
records = [
    ("Cn1ncnc1[C@H]1c2n[nH]c(=O)c3cc(F)cc(c23)N[C@@H]1c1ccc(F)cc1 + Cc1nc(NC(=O)N2CCCC2C(N)=O)sc1-c1ccnc(C(C)(C)C(F)(F)F)c1", "817829-284-R-J1-PDC multi-cell spheroid viability", 50.8),
    ("CC1(C)CCC(Nc2ncc(C(F)(F)F)c(-c3c[nH]c4c(P(C)(C)=O)c(C#N)ccc34)n2)CN1 (centres undefined) + Cc1nc(NC(=O)N2CCCC2C(N)=O)sc1-c1ccnc(C(C)(C)C(F)(F)F)c1", "817829-284-R-J1-PDC multi-cell spheroid viability", 23.9),
    ("CC(C)NCC(C(=O)N1CCN(c2ncnc3c2C(C)CC3O)CC1)c1ccc(Cl)cc1 (centres undefined) + Cc1nc(NC(=O)N2CCCC2C(N)=O)sc1-c1ccnc(C(C)(C)C(F)(F)F)c1", "817829-284-R-J1-PDC multi-cell spheroid viability", 52.8),
    ("CC(Cn1ccc(-c2ccc(C#N)c(Cl)c2)n1)NC(=O)c1cc(C(C)O)[nH]n1 (centres undefined) + Cc1nc(NC(=O)N2CCCC2C(N)=O)sc1-c1ccnc(C(C)(C)C(F)(F)F)c1", "817829-284-R-J1-PDC multi-cell spheroid viability", 55.8),
]
